test: Cytotoxicity against human HepG2 cells by Maestro Z Impedance Assay; type: toxicity, cell-based

- cpd_smiles: "CN1C[C@@H]2CCCN2C1=O"
  CC50: "> 100 µM"

---

test: Stability of the compound in PBS buffer at pH 7.2 assessed as half life at 25 degreeC by HPLC analysis; type: physicochemical
// half-life lookup, one value per entry
recorded_metric: half-life (h)

- cpd_smiles: "C/C(=N\\OC(=O)[C@@H](N)C(C)C)[C@H]1CC[C@H]2[C@@H]3CCC4=CC(=O)CC[C@]4(C)[C@H]3CC[C@]12C.Cl"
  reported_relation: "="
  result: 11
- cpd_smiles: "C/C(=N\\OC(=O)OCCN(C)C)[C@H]1CC[C@H]2[C@@H]3CCC4=CC(=O)CC[C@]4(C)[C@H]3CC[C@]12C.Cl"
  reported_relation: "="
  result: 3.5
- cpd_smiles: "C/C(=N\\OC(=O)NC[C@@H]1CCCCN1)[C@H]1CC[C@H]2[C@@H]3CCC4=CC(=O)CC[C@]4(C)[C@H]3CC[C@]12C.Cl"
  reported_relation: ">"
  result: 240
- cpd_smiles: "C/C(=N\\OC(=O)N1CCC[C@H]1CN)[C@H]1CC[C@H]2[C@@H]3CCC4=CC(=O)CC[C@]4(C)[C@H]3CC[C@]12C.Cl"
  reported_relation: ">"
  result: 240
- cpd_smiles: "C/C(=N\\OC(=O)N(C)CCNCCF)[C@H]1CC[C@H]2[C@@H]3CCC4=CC(=O)CC[C@]4(C)[C@H]3CC[C@]12C.Cl"
  reported_relation: "="
  result: 36.1
- cpd_smiles: "C/C(=N\\OC(=O)N(C)CCNCCO)[C@H]1CC[C@H]2[C@@H]3CCC4=CC(=O)CC[C@]4(C)[C@H]3CC[C@]12C.Cl"
  reported_relation: "="
  result: 30.4

Provenance of the data: ChEMBL document CHEMBL5338742
